Test system: ASPC-1 tumor-bearing mice
method: Biodistribution of radionuclide labeled complexes in ASPC-1 tumor-bearing mice
Format: in vivo, BALB/c nude mice
assay-context: Spleen, 1 h
value-type: % ID/g (1 h) Spleen (% ID/g)

Some compounds with recorded % ID/g (1 h) Spleen:
>  <compound>
COc1cccc(OC)c1-c1cc(C(=O)NC2(C(=O)O)C3CC4CC(C3)CC2C4)nn1-c1ccc(C(=O)N(C)CCCN(C)CCCN(C)C(=O)CN2CCN(CC(=O)[O-])CCN(CC(=O)[O-])CCN(CC(=O)[O-])CC2)cc1C(C)C.[177Lu+3] (stereo not shown) [^177Lu-C-2, reference compound]

>  <% ID/g (1 h) Spleen (% ID/g)>
1.25

$$$$
>  <compound>
COc1cccc(OC)c1-c1cc(C(=O)NC2(C(=O)O)C3CC4CC(C3)CC2C4)nn1-c1ccc(C(=O)N(CCCNC(=O)CN2CCN(CC(=O)[O-])CCN(CC(=O)[O-])CCN(CC(=O)[O-])CC2)CCCN(C)C)cc1C(C)C.[177Lu+3] (stereo not shown) [^177Lu-C-5, reference compound]

>  <% ID/g (1 h) Spleen (% ID/g)>
0.26

$$$$

A = COc1cccc(OC)c1-c1cc(C(=O)NC2(C(=O)O)C3CC4CC(C3)CC2C4)nn1-c1ccc(OCCCN(C)CCCN(C)C(=O)CN2CCN(CC(=O)[O-])CCN(CC(=O)[O-])CCN(CC(=O)[O-])CC2)cc1C(C)C.[177Lu+3] (stereo not shown) [^177Lu-I-7]
B = COc1cccc(OC)c1-c1cc(C(=O)NC2(C(=O)O)C3CC4CC(C3)CC2C4)nn1-c1ccc(N(CCCN(C)C)C(=O)COCCOCCNC(=O)CN2CCN(CC(=O)[O-])CCN(CC(=O)[O-])CCN(CC(=O)[O-])CC2)cc1C(C)C.[177Lu+3] (stereo not shown) [^177Lu-I-6]
Ask: Among A and B , whose measured % ID/g (1 h) Spleen is the smaller figure? # reply format: chosen label
Result: B
(B: 0.09 % ID/g, A: 0.63 % ID/g)

* * *

Test system: ASPC-1 tumor-bearing mice
method: Biodistribution of radionuclide labeled complexes in ASPC-1 tumor-bearing mice
Assay type: in vivo, BALB/c nude mice
assay-context: Lung, 4 h
value-type: % ID/g (4 h) Lung (% ID/g)

a = COc1cccc(OC)c1-c1cc(C(=O)NC2(C(=O)O)C3CC4CC(C3)CC2C4)nn1-c1ccc(NCCOCCOCCNC(=O)CN2CCN(CC(=O)[O-])CCN(CC(=O)[O-])CCN(CC(=O)[O-])CC2)cc1C(C)C.[177Lu+3] (stereo not drawn) [^177Lu-I-10]
b = COc1cccc(OC)c1-c1cc(C(=O)NC2(C(=O)O)C3CC4CC(C3)CC2C4)nn1-c1ccc(N(CCCN(C)C)C(=O)COCCOCCNC(=O)CN2CCN(CC(=O)[O-])CCN(CC(=O)[O-])CCN(CC(=O)[O-])CC2)cc1C(C)C.[177Lu+3] (stereo not drawn) [^177Lu-I-6]
Ask: Hi, I'm comparing a with b and wondering which one has the bigger number for % ID/g (4 h) Lung. Any idea? // return label of chosen record
Result: a
(a: 0.74 % ID/g, b: 0.17 % ID/g)

* * *

System: ASPC-1 tumor-bearing mice
method: Biodistribution of radionuclide labeled complexes in ASPC-1 tumor-bearing mice
Assay type: in vivo, BALB/c nude mice
assay-context: Tumor, 72 h
value-type: % ID/g (72 h) Tumor (% ID/g)

>  <compound>
COc1cccc(OC)c1-c1cc(C(=O)NC2(C(=O)O)C3CC4CC(C3)CC2C4)nn1-c1ccc(C(=O)N(C)CCCN(C)CCCN(C)C(=O)CN2CCN(CC(=O)[O-])CCN(CC(=O)[O-])CCN(CC(=O)[O-])CC2)cc1C(C)C.[177Lu+3] (stereo not shown) [^177Lu-C-2, reference compound]

>  <study-system>
ASPC-1 tumor-bearing mice

>  <% ID/g (72 h) Tumor (% ID/g)>
8.03

$$$$
>  <compound>
COc1cccc(OC)c1-c1cc(C(=O)NC2(C(=O)O)C3CC4CC(C3)CC2C4)nn1-c1ccc(NC(=O)CCCN(C)CCCN(C)C(=O)CN2CCN(CC(=O)[O-])CCN(CC(=O)[O-])CCN(CC(=O)[O-])CC2)cc1C(C)C.[177Lu+3] (stereo not shown) [^177Lu-I-5]

>  <study-system>
ASPC-1 tumor-bearing mice

>  <% ID/g (72 h) Tumor (% ID/g)>
12.83

$$$$

P = COc1cccc(OC)c1-c1cc(C(=O)NC2(C(=O)O)C3CC4CC(C3)CC2C4)nn1-c1ccc(OCCCN(C)CCCN(C)C(=O)CN2CCN(CC(=O)[O-])CCN(CC(=O)[O-])CCN(CC(=O)[O-])CC2)cc1C(C)C.[177Lu+3] (stereo not shown) [^177Lu-I-7]
Q = COc1cccc(OC)c1-c1cc(C(=O)NC2(C(=O)O)C3CC4CC(C3)CC2C4)nn1-c1ccc(NCCOCCOCCNC(=O)CN2CCN(CC(=O)[O-])CCN(CC(=O)[O-])CCN(CC(=O)[O-])CC2)cc1C(C)C.[177Lu+3] (stereo not shown) [^177Lu-I-10]
Ask: Pick the one with the larger % ID/g (72 h) Tumor: P vs Q Selection: enter the item's label.
Result: P
(P: 18.07 % ID/g, Q: 4.24 % ID/g)
